# Protocol Notes: recombinant UMI read abundance after kanamycin selection (control-corrected) (log10(CPM+1)); higher = more efficient recombination; extreme values may be limits of the assay; sequences stand for … in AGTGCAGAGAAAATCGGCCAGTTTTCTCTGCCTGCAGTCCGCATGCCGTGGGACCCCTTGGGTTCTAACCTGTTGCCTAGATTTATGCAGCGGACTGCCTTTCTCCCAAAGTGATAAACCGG…AGGTTGGTTTCACT; site = the 11-nt donor;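 note: IS621 bridge recombinase in Escherichia coli cells against a fixed T5 target plasmid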
Answer each item with its documented recombinant UMI read abundance (log10).
The response must contain the number and no unit.

*Q* # get_value(readout='recombinant UMI read abundance (log10)', item= ACATTGACATGGACCGGTTTTCCCGGTAATCCGTATTTGCC (site ACATTGACTGG) )
*A* 2

*Q* Would you kindly share the measured recombinant UMI read abundance (log10) for TTCACGCCATGGACCGGTTTTCCCGGTAATCCGTATTTGAC (site TTCACGCCTGT) ?
*A* 0

*Q* What does the data say about its recombinant UMI read abundance (log10)? Entry: TCTAGAACATGGACCGGTTTTCCCGGTAATCCGTATTTGAG (site GCTAGAACTCT)
*A* 0

*Q* What value of recombinant UMI read abundance (log10) has been reported for the following sequence? TGATGAGCATGGACCGGTTTTCCCGGTAATCCGTATTTGGG (site TGATGAGCTCC)
*A* 0.403

*Q* Consider the sequence shown here: CCCCACACATGGACCGGTTTTCCCGGTAATCCGTATTTGTA (site CCCCACACTTC) What is its recorded recombinant UMI read abundance (log10)?
*A* 0.0125
